Known Inhibition of a selection of molecules
Tested on: Escherichia coli
Settings: Concentration 20 uM; ASSAY_TEST Inhibition of Bacterial Growth; detection method Absorption (OD600); MEDIA CAMHB; plate type 384well; NBS; CORNING #3640; time 18 hr
Description: Antibacterial activity against Escherichia coli ATCC 25922 (CO-ADD:GN_001); MIC in CAMBH media using NBS plates, by OD(600)
Results with a measured potency or affinity are listed apart.
quantity_kind: Inhibition (%)

molecule	recorded_measurement
CS(=O)(=O)OCCCCOS(C)(=O)=O [BUSULFAN]	10.16
CN1CCN(C2=Nc3cc(F)ccc3Cc3ccccc32)CC1 [FLUPERLAPINE]	3.9
C#C[C@]1(O)CC[C@H]2[C@@H]3[C@H](C)CC4=C(CCC(=O)C4)[C@H]3CC[C@@]21C [TIBOLONE]	2.02
CC(C)(C)NCC(O)c1ccc(O)c(CO)c1.CC(C)(C)NCC(O)c1ccc(O)c(CO)c1.O=S(=O)(O)O (stereo not given) [ALBUTEROL SULFATE]	5.03
O=C1[C@H](CC[C@H](O)c2ccc(F)cc2)[C@@H](c2ccc(O)cc2)N1c1ccc(F)cc1 [EZETIMIBE]	-0.7
Clc1ccc2c(c1)C(N1CCNCC1)=Nc1ccccc1O2 [AMOXAPINE]	7
CC(C)(C#N)c1cc(Cn2cncn2)cc(C(C)(C)C#N)c1 [ANASTROZOLE]	4.02
CCCc1cc(=O)[nH]c(=S)[nH]1 [PROPYLTHIOURACIL]	8.71
CCC(=O)OCC(=O)[C@@]1(OC(=O)CC)[C@@H](C)C[C@H]2[C@@H]3CCC4=CC(=O)C=C[C@]4(C)[C@@]3(Cl)[C@@H](O)C[C@@]21C [BECLOMETHASONE DIPROPIONATE]	-8.75
CN(C)CCCSc1ccccc1NC(=O)/C=C/c1ccccc1.Cl.O	3.24
CC(=O)O.CC(C)C[C@H](NC(=O)[C@@H](COC(C)(C)C)NC(=O)[C@H](Cc1ccc(O)cc1)NC(=O)[C@H](CO)NC(=O)[C@H](Cc1c[nH]c2ccccc12)NC(=O)[C@H](Cc1c[nH]cn1)NC(=O)[C@H]1CCC(=O)N1)C(=O)N[C@H](CCCNC(=N)N)C(=O)N1CCC[C@@H]1C(=O)NNC(N)=O	5.78
O=C1C(c2c(O)[nH]c3ccccc23)=Nc2ccccc21	-3.28
Nc1c2c(nc3c1CCC3)CCCC2 [IPIDACRINE]	5.57
CCC1=C(C)CN(C(=O)NCCc2ccc(S(=O)(=O)NC(=O)N[C@H]3CC[C@H](C)CC3)cc2)C1=O [GLIMEPIRIDE]	1.16
CS(=O)(=O)O.Cc1ccc(NC(=O)c2ccc(CN3CCN(C)CC3)cc2)cc1Nc1nccc(-c2cccnc2)n1 [IMATINIB MESYLATE]	2.87
